biological target: JARID1B (Homo sapiens, UniProt Q9UGL1); construct: The FLAG tagged full length JARID1B enzyme was expressed in Sf21 insect cells using FLAG-JARID1B baculoviruses; FLAG (N); made in house; host or cells: Sf21 insect cells (baculovirus); assay: FLAG-JARID1B histone demethylase assay with AlphaScreen detection (HTS and dose response); format: biochemical; details: high-throughput screen, compound 20 μM, standard demethylase conditions (10 μM α-KG, 50 μM Fe (II)); read-out: Inhibitory effect (percent);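 also: FLAG-tagged JARID1B at 4 nM acting on a biotinylated H3K4me3 peptide, demethylation read by AlphaScreen luminescence, with hits checked against bio-H3K4me2 without enzyme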
Sequence (Q9UGL1 whole entry): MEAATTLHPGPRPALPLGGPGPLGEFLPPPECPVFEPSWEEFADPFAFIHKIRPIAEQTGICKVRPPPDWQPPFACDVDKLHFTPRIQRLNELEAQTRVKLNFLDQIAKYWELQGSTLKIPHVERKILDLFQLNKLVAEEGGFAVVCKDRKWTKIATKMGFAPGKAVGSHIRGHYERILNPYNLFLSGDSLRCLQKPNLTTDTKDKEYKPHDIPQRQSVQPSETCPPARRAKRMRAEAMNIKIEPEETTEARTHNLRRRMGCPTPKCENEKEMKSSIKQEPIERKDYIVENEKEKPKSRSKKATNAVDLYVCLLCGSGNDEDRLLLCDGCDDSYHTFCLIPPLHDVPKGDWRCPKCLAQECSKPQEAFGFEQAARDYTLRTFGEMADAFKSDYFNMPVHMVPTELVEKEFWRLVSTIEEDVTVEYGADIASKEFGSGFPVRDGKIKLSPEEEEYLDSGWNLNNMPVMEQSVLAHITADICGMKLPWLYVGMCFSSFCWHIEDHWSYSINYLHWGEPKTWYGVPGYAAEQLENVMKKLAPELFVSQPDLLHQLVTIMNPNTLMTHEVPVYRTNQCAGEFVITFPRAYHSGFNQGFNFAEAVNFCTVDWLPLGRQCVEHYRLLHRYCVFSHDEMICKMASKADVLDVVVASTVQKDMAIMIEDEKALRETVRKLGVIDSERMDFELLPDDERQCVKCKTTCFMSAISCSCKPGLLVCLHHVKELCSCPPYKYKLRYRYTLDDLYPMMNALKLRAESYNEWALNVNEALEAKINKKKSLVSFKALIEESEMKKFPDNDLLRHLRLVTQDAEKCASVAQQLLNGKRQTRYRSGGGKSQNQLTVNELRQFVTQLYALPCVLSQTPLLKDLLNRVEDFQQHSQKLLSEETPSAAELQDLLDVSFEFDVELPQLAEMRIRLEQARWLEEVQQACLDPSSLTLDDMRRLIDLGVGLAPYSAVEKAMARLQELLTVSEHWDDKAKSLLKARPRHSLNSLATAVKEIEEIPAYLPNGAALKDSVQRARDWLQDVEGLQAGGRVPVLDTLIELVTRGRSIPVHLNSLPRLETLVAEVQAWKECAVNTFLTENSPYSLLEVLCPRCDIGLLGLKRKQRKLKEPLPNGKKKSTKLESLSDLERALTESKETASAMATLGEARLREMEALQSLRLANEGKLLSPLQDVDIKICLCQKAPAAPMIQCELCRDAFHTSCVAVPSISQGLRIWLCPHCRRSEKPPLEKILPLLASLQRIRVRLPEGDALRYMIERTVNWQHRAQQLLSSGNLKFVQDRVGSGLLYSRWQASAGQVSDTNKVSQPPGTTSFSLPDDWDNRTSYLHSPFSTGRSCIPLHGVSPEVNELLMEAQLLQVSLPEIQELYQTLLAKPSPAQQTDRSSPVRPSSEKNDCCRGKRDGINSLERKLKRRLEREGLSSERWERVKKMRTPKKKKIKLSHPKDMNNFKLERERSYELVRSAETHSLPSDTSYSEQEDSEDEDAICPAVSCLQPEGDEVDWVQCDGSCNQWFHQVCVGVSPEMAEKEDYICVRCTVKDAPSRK
Below: a set of entries, each annotated with reported inhibition at 20 µM.

compound: CCC(=O)Nc1cnc(N2CCN(c3ccc(Cl)cc3)CC2)c(C(=O)O)c1 [YU208250]
testTarget: JARID1B (Homo sapiens, UniProt Q9UGL1)
inhibition at 20 µM / %: 44.5
--
compound: Cc1cccc(NC(c2cccnc2)c2ccc3cccnc3c2O)n1 (stereo not shown) [YU172179]
testTarget: JARID1B (Homo sapiens, UniProt Q9UGL1)
inhibition at 20 µM / %: 58.1
--
compound: c1ccc(-c2nc3ccccn3c2Nc2ccc3c(c2)OCCO3)nc1 [YU172999]
testTarget: JARID1B (Homo sapiens, UniProt Q9UGL1)
inhibition at 20 µM / %: 96.7
--
compound: Cc1ccc(CNn2cnnc2S)cc1 [YU145266]
testTarget: JARID1B (Homo sapiens, UniProt Q9UGL1)
inhibition at 20 µM / %: 45.7
--
compound: O=C(NCCOc1ccccc1)c1ccccc1 [YU146037]
testTarget: JARID1B (Homo sapiens, UniProt Q9UGL1)
inhibition at 20 µM / %: 32.6
--
compound: CCC(=O)Nc1ccc(N2CCCC2)c(C(=O)O)c1 [YU208199]
testTarget: JARID1B (Homo sapiens, UniProt Q9UGL1)
inhibition at 20 µM / %: 63.4
--
compound: Cn1cnnc1SCC(=O)c1ccc(C(C)(C)C)cc1 [YU149180]
testTarget: JARID1B (Homo sapiens, UniProt Q9UGL1)
inhibition at 20 µM / %: 32
--
compound: O=C(NC(=S)NCc1ccccc1)C1CCCC1 [YU147054]
testTarget: JARID1B (Homo sapiens, UniProt Q9UGL1)
inhibition at 20 µM / %: 33.9
--
compound: COC(=O)C1=C(C)NC(=O)C1(Nc1nccs1)C(F)(F)F (stereo not shown) [YU152562]
testTarget: JARID1B (Homo sapiens, UniProt Q9UGL1)
inhibition at 20 µM / %: 39.4
--
compound: c1cc2c(cc1CNc1ccc(N3CCCC3)cc1)OCO2 [YU149834]
testTarget: JARID1B (Homo sapiens, UniProt Q9UGL1)
inhibition at 20 µM / %: 48.1
--
compound: Cc1[nH]c2nc(C(F)(F)F)nn2c(=O)c1C [YU172199]
testTarget: JARID1B (Homo sapiens, UniProt Q9UGL1)
inhibition at 20 µM / %: 62.4
--
compound: NNC(=O)c1ccncc1 [YU033872, ISONIAZID, reference compound]
testTarget: JARID1B (Homo sapiens, UniProt Q9UGL1)
inhibition at 20 µM / %: 54.5
--
compound: c1cc(CNc2ccc(N3CCOCC3)cc2)ccn1 [YU129874]
testTarget: JARID1B (Homo sapiens, UniProt Q9UGL1)
inhibition at 20 µM / %: 74.5
--
compound: Cc1cc(N)c2ccccc2[n+]1CCCCCCCCCC[n+]1c(C)cc(N)c2ccccc21 [YU034372, DEQUALINIUM CHLORIDE, reference compound]
testTarget: JARID1B (Homo sapiens, UniProt Q9UGL1)
inhibition at 20 µM / %: 42.1
--
compound: Cc1ccc(C(=O)Nc2nnc(-c3ccncc3)s2)o1 [YU148889]
testTarget: JARID1B (Homo sapiens, UniProt Q9UGL1)
inhibition at 20 µM / %: 44.6
--
compound: O=C1C=CC(=O)[C@@H](Br)[C@@H]1Br [YU221139]
testTarget: JARID1B (Homo sapiens, UniProt Q9UGL1)
inhibition at 20 µM / %: 58.7
--
compound: CC(C)(C#N)O[C@@H]1O[C@H](CO)[C@@H](O)[C@H](O)[C@H]1O [YU155312, LINAMARIN, reference compound]
testTarget: JARID1B (Homo sapiens, UniProt Q9UGL1)
inhibition at 20 µM / %: 60.3
--
compound: O=C(OC[C@H]1O[C@@H](OC(=O)c2cc(O)c(O)c(OC(=O)c3cc(O)c(O)c(O)c3)c2)[C@H](OC(=O)c2cc(O)c(O)c(OC(=O)c3cc(O)c(O)c(O)c3)c2)[C@@H](OC(=O)c2cc(O)c(O)c(OC(=O)c3cc(O)c(O)c(O)c3)c2)[C@@H]1OC(=O)c1cc(O)c(O)c(OC(=O)c2cc(O)c(O)c(O)c2)c1)c1cc(O)c(O)c(OC(=O)c2cc(O)c(O)c(O)c2)c1 (stereo in doubt) [YU034398, TANNIC ACID, reference compound]
testTarget: JARID1B (Homo sapiens, UniProt Q9UGL1)
inhibition at 20 µM / %: 105
--
compound: c1cncc(-c2nn3c(Cn4cnc5ccccc54)nnc3s2)c1 [YU154091]
testTarget: JARID1B (Homo sapiens, UniProt Q9UGL1)
inhibition at 20 µM / %: 40
--
compound: Cc1nc(NC(=O)c2cc3ccccc3o2)sc1C [YU147750]
testTarget: JARID1B (Homo sapiens, UniProt Q9UGL1)
inhibition at 20 µM / %: 86.4
--
compound: S=C(Nc1ccc2c(c1)OCO2)Nn1cnnc1 [YU147019]
testTarget: JARID1B (Homo sapiens, UniProt Q9UGL1)
inhibition at 20 µM / %: 37.3
--
compound: O=C1NC(=O)C(c2ccc(Cl)cc2)N1 (stereo not shown) [YU145089]
testTarget: JARID1B (Homo sapiens, UniProt Q9UGL1)
inhibition at 20 µM / %: 78.3
--
compound: O=C(NCc1ccccc1)c1ccc(N2CCCC2)c([N+](=O)[O-])c1 [YU153074]
testTarget: JARID1B (Homo sapiens, UniProt Q9UGL1)
inhibition at 20 µM / %: 102
--
compound: Cc1c2c(=O)n(-c3nc4ccccc4s3)[nH]c2cc(=O)n1CCN1CCOCC1 [YU172087]
testTarget: JARID1B (Homo sapiens, UniProt Q9UGL1)
inhibition at 20 µM / %: 56.4
--
compound: COc1cc(NC(C)CCCN)c2ncccc2c1 (stereo not shown) [YU033971, PRIMAQUINE DIPHOSPHATE, reference compound]
testTarget: JARID1B (Homo sapiens, UniProt Q9UGL1)
inhibition at 20 µM / %: 57.5
--
compound: Cc1noc2c1C(c1ccc(O)c(O)c1)C1=C(CC(C)(C)CC1=O)N2 (stereo not shown) [YU185530]
testTarget: JARID1B (Homo sapiens, UniProt Q9UGL1)
inhibition at 20 µM / %: 46.5
--
compound: O=C(O[C@@H]1Cc2c(O)cc(O)cc2O[C@@H]1c1ccc(O)c(O)c1)c1cc(O)c(O)c(O)c1 [YU155085, EPICATECHIN MONOGALLATE, reference compound]
testTarget: JARID1B (Homo sapiens, UniProt Q9UGL1)
inhibition at 20 µM / %: 99.5
--
compound: C=CCn1c(-c2ccc([N+](=O)[O-])cc2)n[nH]c1=S [YU147005]
testTarget: JARID1B (Homo sapiens, UniProt Q9UGL1)
inhibition at 20 µM / %: 36.8
--
compound: c1ccc(CCc2nn3c(-c4ccncc4)nnc3s2)cc1 [YU150981]
testTarget: JARID1B (Homo sapiens, UniProt Q9UGL1)
inhibition at 20 µM / %: 71.2
--
compound: O=c1c(O[C@@H]2O[C@H](CO)[C@@H](O)[C@H](O)[C@H]2O)c(-c2ccc(O)c(O)c2)oc2cc(O)cc(O)c12 [YU221011, Isoquercitrin, reference compound]
testTarget: JARID1B (Homo sapiens, UniProt Q9UGL1)
inhibition at 20 µM / %: 45.1
--
compound: COC(=O)c1cccc(NC(c2cccnc2)c2ccc3cccnc3c2O)c1 (stereo not shown) [YU172172]
testTarget: JARID1B (Homo sapiens, UniProt Q9UGL1)
inhibition at 20 µM / %: 60.1
--
compound: Cc1ccccc1C(=O)NCc1nnc(S)n1C [YU147024]
testTarget: JARID1B (Homo sapiens, UniProt Q9UGL1)
inhibition at 20 µM / %: 31.6
--
compound: C#CCCCCCCCCCCCC(O)CC(O)COC(C)=O (stereo not shown) [YU155369, AVOCADYNE ACETATE, reference compound]
testTarget: JARID1B (Homo sapiens, UniProt Q9UGL1)
inhibition at 20 µM / %: 45.1
--
compound: c1cc(CNc2ccc3c(c2)OCCO3)ccn1 [YU146041]
testTarget: JARID1B (Homo sapiens, UniProt Q9UGL1)
inhibition at 20 µM / %: 48.7
